Biological target: UBE2L3 (Homo sapiens (Human), UniProt P68036)
Sequence (P68036 whole entry): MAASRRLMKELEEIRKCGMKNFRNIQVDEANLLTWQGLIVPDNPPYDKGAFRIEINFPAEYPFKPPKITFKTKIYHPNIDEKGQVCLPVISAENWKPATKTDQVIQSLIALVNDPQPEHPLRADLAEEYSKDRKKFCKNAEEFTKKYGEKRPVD
Assay: ITC 25 C, TWO LABS merged (one a row), salt differs
MEASURED ATTRIBUTE: pKd
pKd (log units): -log10 of the concentration in mol/L.

The binder listed as Arkadia (protein) KQDGEEGTEEDTEEKCTICLSILEEGEDVRRLPCMHLFHQVCVDQWLITNKKCPICRVDIEAQLPSES has a reported pKd of 4.56
